Every entry's value here was drawn from patent US7109333B2.

Readings of pIC50 for the listed compounds
System: HN5 head and neck tumor cell line
Test: Methylene blue growth inhibition assay, HN5
Type: cell-based
Conditions: Homo sapiens, 72 h; HN5, 3 days; read-out: Cell Proliferation HN5, IC50
Protocol: Human breast (BT474), head and neck (HN5) and gastric tumor (N87) cell lines were cultured in low glucose DMEM (Life Technologies 12320–032) containing 10% fetal bovine serum (FBS) at 37° C. in a humidified 10% CO2, 90% air incubator. […] Optical density at 620 nm was measured on a microplate reader. Percent inhibition of cell growth was calculated relative to vehicle treated control wells. […]
pIC50: −log10 of the molar value. Where a name gives a salt, the structure may show the parent alone.

Past entries and their recorded results:
# Compound, Target system, pIC50
data = [
    ("CS(=O)(=O)CCNCc1ccoc1-c1ccc2ncnc(Nc3ccc(OCc4ccccc4)cc3)c2c1 [Example 20]", "HN5 head and neck tumor cell line", "4.60 to 5.30"),
    ("CS(=O)(=O)CCNCc1ccc(-c2ccc3ncnc(Nc4ccc(OCc5ccccc5)c(C(F)(F)F)c4)c3c2)o1 [Example 37]", "HN5 head and neck tumor cell line", "> 5.30"),
    ("CS(=O)(=O)CCNCc1ccc(-c2cc3c(Nc4ccc(OCc5ccccc5)cc4)ncnc3cc2F)o1 [Example 34]", "HN5 head and neck tumor cell line", "> 5.30"),
    ("CS(=O)(=O)CCNCc1ccc(-c2ccc3ncnc(Nc4ccc(OCc5cccc(F)c5)c(F)c4)c3c2)o1 [Example 18]", "HN5 head and neck tumor cell line", "> 5.30"),
    ("CS(=O)(=O)CCNCc1coc(-c2cc3c(Nc4ccc(OCc5cccc(F)c5)cc4)ncnc3cn2)c1 [Example 6, dihydrochloride]", "HN5 head and neck tumor cell line", "> 5.30"),
    ("CS(=O)(=O)CCNCc1cccc(-c2cc3c(Nc4ccc(OCc5ccccc5)cc4)ncnc3cn2)c1 [Example 4, dihydrochloride]", "HN5 head and neck tumor cell line", "> 5.30"),
]

Consider the additional compound presented here.
Can you share its pIC50? I mean this compound: CS(=O)(=O)CCNCc1nc(-c2ccc3ncnc(Nc4ccc(OCc5ccccc5)c(F)c4)c3c2)cs1 [Example 15]
> 5.30

====

tested on: HN5 head and neck tumor cell line; test: Methylene blue growth inhibition assay, HN5; assay type: cell-based; conditions: Homo sapiens, 72 h; HN5, 3 days; read-out: Cell Proliferation HN5, IC50
pIC50: −log10 of the molar value. Structures can show the parent of a compound that is named as a salt.
Result type: pIC50

# Compound, Result type, Result
measured = [
    ("CS(=O)(=O)CCNCc1ccc(-c2cc3c(Nc4ccc(OCc5cccc(F)c5)cc4)ncnc3cn2)o1 [Example 2, dihydrochloride]", "pIC50", "> 5.30"),
    ("CS(=O)(=O)CCNCc1nc(-c2ccc3ncnc(Nc4ccc5c(cnn5Cc5ccccc5)c4)c3c2)cs1", "pIC50", "> 5.30"),
]

Consider the additional compound presented here.
Can you share its pIC50? I mean this compound: CS(=O)(=O)CCNCc1ccc(-c2ccc3ncnc(Nc4ccc(OCc5cccc(C(F)(F)F)c5)cc4)c3c2)o1
4.60 to 5.30
